I'd be grateful if you could share measured growth for these entries.
tested on: SW-620 colon; experiment: NCI-60 one-dose screen, 48 h (100 = growth as untreated, 0 = no growth, -100 = all killed); details: 10 µM unless noted
Compounds without any hit were thinned out: in the full panel of roughly 83,000, 20% have a hit.
Kindly provide the numeric value in % only, without the unit symbol.

Fill in: growth of `O=C1Nc2ccccc2/C1=C/c1nc2ccccc2c(=O)[nH]1` is ___
102

Fill in: growth of `Oc1c(I)cc(I)cc1CNCCN(Cc1ccccn1)Cc1ccccn1` is ___
-42.5

Fill in: growth of COc1cc(C2c3cc(OC(C)=O)c(OC)cc3CC3C(=O)OCC32)ccc1OC(C)=O (centres undefined) is ___
101

Fill in: growth of `Cn1ccnc1C(=O)/C=C/c1ccc(C(=O)Nc2ccccc2O)cc1` is ___
10.3
